I'd appreciate it if you could supply TGI values for the items below.
Test system: NCI-H460 lung
experimentalProtocol: NCI tumour cell line growth inhibition, 48 h

Problem: Given N#CC1CCCCOCCOCCOCCOCCOCCCCCC1=O (stereo unspecified) , respond with its TGI.
Solution: > 100 µM

Problem: Given O=S(=O)(O)c1ccc(N=Nc2nc(C(F)(F)F)c(C(F)(F)F)[nH]2)cc1 , respond with its TGI.
Solution: > 100 µM

Problem: Given Cc1c(-c2ccccc2)nn2cc(-c3ccccc3)nnc12 , respond with its TGI.
Solution: 51.2 µM

Problem: Given CCOc1cc(Br)c(C(C)NC(=O)c2cccc(OC)c2)cc1OCC (stereo unspecified) , respond with its TGI.
Solution: > 81.5 µM

Problem: Given O=[N+]([O-])c1ccc(C2CC(c3ccccc3Cl)=Nc3ccccc3S2=O)cc1 (stereo unspecified) , respond with its TGI.
Solution: 17.9 µM

Problem: Given CS(=O)(=O)NNS(=O)(=O)c1ccccc1 , respond with its TGI.
Solution: > 100 µM

Problem: Given CSc1cc(-c2ccccn2)nc(-c2ccccn2)c1 , respond with its TGI.
Solution: 1.88 µM

Problem: Given O=[N+]([O-])c1ccc(-c2noc(-c3ccc(Cl)cc3)c2C2=NCCN2)cc1 , respond with its TGI.
Solution: > 100 µM

Problem: Given CC(=O)OCC1OC(OCCCCCCO)C(OC(C)=O)C(OC(C)=O)C1OC(C)=O (stereo unspecified) , respond with its TGI.
Solution: > 100 µM

Problem: Given Oc1ccc(O)c(-c2cc(-c3ccc(Cl)cc3)nn2-c2ccccc2)c1 , respond with its TGI.
Solution: > 100 µM

Problem: Given NC1=NC(c2ccc(Cl)cc2)N(c2ccc(S(N)(=O)=O)cc2)C(N)=N1 (stereo unspecified) , respond with its TGI.
Solution: > 100 µM
